These measurements were taken from paper PMC7071032.

- Test system: T24 (bladder) cells
- protocolSummary: MTT reduction assay, T24 cells
- Format: cell-based
- experimentalContext: Homo sapiens, T-24, 48 h incubation, read-out: IC50 ± SEM T24
Each record here notes measured IC50.

compound	readingUnit	IC50
CCCC1(O)C2=C(N=C3Sc4cc(OC)ccc4N31)C(=O)c1ccccc1C2=O (centres unmarked) [Compound 20]	µM	1.89
CCCCCCCC1(O)C2=C(N=C3Sc4cc(OC)ccc4N31)C(=O)c1ccccc1C2=O (centres unmarked) [Compound 22]	µM	5.95
O=C1C2=C(C(=O)c3ccccc31)C(O)(c1cccs1)N1C(=N2)Sc2cc(F)ccc21 (centres unmarked) [Compound 26]	µM	13.4
CCCCCC1(O)C2=C(N=C3Sc4cc(C)ccc4N31)C(=O)c1ccccc1C2=O (centres unmarked) [Compound 17]	µM	6.86
CC1(O)C2=C(N=C3Sc4ccccc4N31)C(=O)c1ccccc1C2=O (centres unmarked) [Compound 11]	µM	4.65
CCCCCCCC1(O)C2=C(N=C3Sc4cc(C)ccc4N31)C(=O)c1ccccc1C2=O (centres unmarked) [Compound 18]	µM	5.6
CCCCCCCC1(O)C2=C(N=C3Sc4ccccc4N31)C(=O)c1ccccc1C2=O (centres unmarked) [Compound 14]	µM	8.42
O=C1C2=C(C(=O)c3ccccc31)C(O)(c1cccs1)N1C(=N2)Sc2ccccc21 (centres unmarked) [Compound 25]	µM	8.72

---

- System: non-tumor fibroblasts AG 1523
- protocolSummary: MTT reduction assay, non-tumor fibroblasts
- Type: cell-based
- experimentalContext: Homo sapiens, AG1523, 48 h incubation, read-out: IC50 ± SEM AG 1523
Note to self: IC50 under 9 µM means satisfied, ties and anything higher get not satisfied.

molecule	labelValue
CCCCCCCC1(O)C2=C(N=C3Sc4cc(OC)ccc4N31)C(=O)c1ccccc1C2=O (stereo not shown) [Compound 22]	satisfied
CCCCCCCC1(O)C2=C(N=C3Sc4cc(C)ccc4N31)C(=O)c1ccccc1C2=O (stereo not shown) [Compound 18]	satisfied
O=C1C2=C(C(=O)c3ccccc31)C(O)(c1cccs1)N1C(=N2)Sc2ccccc21 (stereo not shown) [Compound 25]	not satisfied
O=C1C2=C(C(=O)c3ccccc31)C(O)(c1ccco1)N1C(=N2)Sc2ccccc21 (stereo not shown) [Compound 23]	not satisfied
Cc1ccc2c(c1)SC1=NC3=C(C(=O)c4ccccc4C3=O)C(C)(O)N12 (stereo not shown) [Compound 15]	not satisfied
CCCC1(O)C2=C(N=C3Sc4cc(OC)ccc4N31)C(=O)c1ccccc1C2=O (stereo not shown) [Compound 20]	satisfied
O=C1C2=C(C(=O)c3ccccc31)C(O)(c1cccs1)N1C(=N2)Sc2cc(F)ccc21 (stereo not shown) [Compound 26]	not satisfied
CCCCCC1(O)C2=C(N=C3Sc4cc(C)ccc4N31)C(=O)c1ccccc1C2=O (stereo not shown) [Compound 17]	satisfied
COc1ccc2c(c1)SC1=NC3=C(C(=O)c4ccccc4C3=O)C(C)(O)N12 (stereo not shown) [Compound 19]	satisfied
CCCCCC1(O)C2=C(N=C3Sc4cc(OC)ccc4N31)C(=O)c1ccccc1C2=O (stereo not shown) [Compound 21]	not satisfied
CCCCCCCC1(O)C2=C(N=C3Sc4ccccc4N31)C(=O)c1ccccc1C2=O (stereo not shown) [Compound 14]	satisfied
CC1(O)C2=C(N=C3Sc4ccccc4N31)C(=O)c1ccccc1C2=O (stereo not shown) [Compound 11]	not satisfied
CCCC1(O)C2=C(N=C3Sc4cc(C)ccc4N31)C(=O)c1ccccc1C2=O (stereo not shown) [Compound 16]	satisfied
COc1ccc2c(c1)SC1=NC3=C(C(=O)c4ccccc4C3=O)C(O)(c3ccco3)N12 (stereo not shown) [Compound 24]	not satisfied
CCCCCC1(O)C2=C(N=C3Sc4ccccc4N31)C(=O)c1ccccc1C2=O (stereo not shown) [Compound 13]	satisfied

---

- Test system: panel of cancer cells (T24, DU-145, MCF-7)
- protocolSummary: MTT reduction assay, panel of cancer cells (means, ranges, selectivity index)
- Assay type: cell-based, human
- experimentalContext: Homo sapiens; read-out: mean IC50 value calculated from the individual IC50 values of the three cancer cell lines

compound	IC50
O=C1C2=C(C(=O)c3ccccc31)C(O)(c1ccco1)N1C(=N2)Sc2ccccc21 (stereo not shown)	10.5 to 12.6 µM
CCCC1(O)C2=C(N=C3Sc4cc(OC)ccc4N31)C(=O)c1ccccc1C2=O (stereo not shown)	1.1 to 1.61 µM
COc1ccc2c(c1)SC1=NC3=C(C(=O)c4ccccc4C3=O)C(C)(O)N12 (stereo not shown)	1.1 to 1.61 µM
CCCC1(O)C2=C(N=C3Sc4cc(C)ccc4N31)C(=O)c1ccccc1C2=O (stereo not shown)	1.1 to 1.61 µM

---

Reported pIC50 values for a set of compounds
- Tested on: T24 (bladder) cells
- protocolSummary: MTT reduction assay, T24 cells
- Format: cell-based
- experimentalContext: Homo sapiens, T-24, 48 h incubation, read-out: IC50 ± SEM T24
pIC50: −log10 of the molar value.

compound	testedTarget	pIC50
CCCCCC1(O)C2=C(N=C3Sc4cc(OC)ccc4N31)C(=O)c1ccccc1C2=O (stereo not shown)	T24 (bladder) cells	5.15
O=C1C2=C(C(=O)c3ccccc31)C(O)(c1ccco1)N1C(=N2)Sc2ccccc21 (stereo not shown)	T24 (bladder) cells	5.03
CCCCCC1(O)C2=C(N=C3Sc4ccccc4N31)C(=O)c1ccccc1C2=O (stereo not shown)	T24 (bladder) cells	5.16
COc1ccc2c(c1)SC1=NC3=C(C(=O)c4ccccc4C3=O)C(O)(c3ccco3)N12 (stereo not shown)	T24 (bladder) cells	4.98

---

- Tested on: T24 cells
- protocolSummary: Clonogenic assay
- Type: cell-based, human
- experimentalContext: T24 cells, 1.25 µM, 24 h treatment, 10 days growth
measurementType: number of colony forming units (CFUs)

compound	testedTarget	measurementType	numericResult
CCCC1(O)C2=C(N=C3Sc4cc(OC)ccc4N31)C(=O)c1ccccc1C2=O (stereo not shown)	T24 cells	number of colony forming units (CFUs)	118
CCCC1(O)C2=C(N=C3Sc4cc(C)ccc4N31)C(=O)c1ccccc1C2=O (stereo not shown)	T24 cells	number of colony forming units (CFUs)	79
Cc1ccc2c(c1)SC1=NC3=C(C(=O)c4ccccc4C3=O)C(C)(O)N12 (stereo not shown)	T24 cells	number of colony forming units (CFUs)	22
COc1ccc2c(c1)SC1=NC3=C(C(=O)c4ccccc4C3=O)C(C)(O)N12 (stereo not shown)	T24 cells	number of colony forming units (CFUs)	68

---

- System: panel of cancer cells (T24, DU-145, MCF-7)
- protocolSummary: MTT reduction assay, panel of cancer cells (means, ranges, selectivity index)
- Format: cell-based, human
- experimentalContext: Homo sapiens; read-out: mean IC50 value calculated from the individual IC50 values of the three cancer cell lines
Overview of reported IC50 across a group of compounds:
measurementType: IC50

compound	testedTarget	result
Cc1ccc2c(c1)SC1=NC3=C(C(=O)c4ccccc4C3=O)C(C)(O)N12 (stereo not drawn) [Compound 15]	panel of cancer cells (T24, DU-145, MCF-7)	1.1 to 1.61 µM
O=c1[nH]cc(F)c(=O)[nH]1 [5-Fluorouracil, 5-fluorouracil, reference compound]	panel of cancer cells (T24, DU-145, MCF-7)	7.8 µM
O=C1C2=C(C(=O)c3ccccc31)C(O)(c1cccs1)N1C(=N2)Sc2cc(F)ccc21 (stereo not drawn) [Compound 26]	panel of cancer cells (T24, DU-145, MCF-7)	10.5 to 12.6 µM

---

Documented number of colony forming units (CFUs) across a set of compounds
- Test system: T24 cells
- protocolSummary: Clonogenic assay
- Assay type: cell-based, human
- experimentalContext: T24 cells, 5.0 µM, 24 h treatment, 10 days growth

compound	testedTarget	readingUnit	number of colony forming units (CFUs)
Cc1ccc2c(c1)SC1=NC3=C(C(=O)c4ccccc4C3=O)C(C)(O)N12 (stereo not shown)	T24 cells	CFUs	2
COc1ccc2c(c1)SC1=NC3=C(C(=O)c4ccccc4C3=O)C(C)(O)N12 (stereo not shown)	T24 cells	CFUs	35
CCCC1(O)C2=C(N=C3Sc4cc(OC)ccc4N31)C(=O)c1ccccc1C2=O (stereo not shown)	T24 cells	CFUs	46
CCCC1(O)C2=C(N=C3Sc4cc(C)ccc4N31)C(=O)c1ccccc1C2=O (stereo not shown)	T24 cells	CFUs	23

---

- Test system: T24 cells
- protocolSummary: Clonogenic assay
- Type: cell-based, human
- experimentalContext: T24 cells, 0.025 µM, 24 h treatment, 10 days growth

molecule	number of colony forming units (CFUs)
COc1ccc2c(c1)SC1=NC3=C(C(=O)c4ccccc4C3=O)C(C)(O)N12 (stereo not shown) [Compound 19]	195 ± 16 CFUs
CCCC1(O)C2=C(N=C3Sc4cc(C)ccc4N31)C(=O)c1ccccc1C2=O (stereo not shown) [Compound 16]	204 ± 19 CFUs
Cc1ccc2c(c1)SC1=NC3=C(C(=O)c4ccccc4C3=O)C(C)(O)N12 (stereo not shown) [Compound 15]	180 ± 11 CFUs
CCCC1(O)C2=C(N=C3Sc4cc(OC)ccc4N31)C(=O)c1ccccc1C2=O (stereo not shown) [Compound 20]	204 ± 17 CFUs
